Kindly state koff for each of the entries shown.
# target.of.assay: T1, human IL-33 (mm2) (human, UniProt O95760 112-270)
# T1 construct: Variant in which all four cysteine residues are serine; the entry carries an N-terminal Met and a C-terminal His6; Biotinylated in some assays; also called hIL-33 (mm2); huIL-33 (mm2)
# T1 chain: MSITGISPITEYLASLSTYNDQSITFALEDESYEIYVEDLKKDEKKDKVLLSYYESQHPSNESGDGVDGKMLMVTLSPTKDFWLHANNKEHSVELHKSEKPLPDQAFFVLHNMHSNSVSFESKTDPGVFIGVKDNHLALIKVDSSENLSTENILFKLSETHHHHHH
# test.protocol: BIAcore, IgG captured by anti-human Fc, 125 nM IL-33 (mm2)
Numbers only, in s⁻¹.

9B3-563 (antibody, human IgG1, kappa, V domains shown) VH: EVQLVETGGGLVQPGRSLKLSCVASGFTFSNYWMYWIRQAPGMGLEWVSSINNDGGNTYYLDSVKGRFTISRNNAENTVYLQMNSLRSEDTATYYCAKGHYYYSSYSFAYWGQGTLVTVSS VL: DIQMTQSPSVLSASVGDRVTLSCKASHNINKHLDWYQQKVGEAPKLLIYFTNNLQTGIPSRFSGSGSGTDYTLTISSLQPEDVATYFCFQYNSGWTFGQGTKVEIKR; 0.00109

Can you share its koff? I mean this binder: 9B3-15 (antibody, human IgG1, kappa, V domains shown) VH: EVQLVETGGGLVQPGRSLKLSCVASGFTFSNYWMYWIRQAPGMGLEWVSSINNDGGNTYYLDSVKGRFTISRNNAENTVYLQMNSLRSEDTATYYCAKGHYSYSSYSFANWGQGTLVTVSS VL: DIQMTQSPSVLSASVGDRVTLSCKASHNINKHLDWYQQKVGEAPKLLIYFTNNLQTGIPSRFSGSGSGTDYTLTISSLQPEDVATYFCFQYNSGWTFGQGTKVEIKR
0.000479

Hey, just so you know, these numbers are from patent US20180037644A1.
